System: MS2 coat protein
Assay text: apparent KD of MS2 coat protein; designed switch direction (-1 OFF switch, 1 ON switch): -1; higher = weaker reporter binding
Setup conditions: input ligand: none
Measured attribute: apparent KD of MS2 coat protein

Exercise: Give the measured apparent KD of MS2 coat protein of CCCGUCGAUGUAGGAUAUGCCCGGGUCUCCCGGGCAGAAGGACAUGAGGAUCACCCAUGUUCAUGAGGGUCGCCCAUGAAUGGG [Double but mutated MS2] (Eterna round: R96, puzzle: Exclusion NG 1) .
Key: 21.2 nM

Exercise: Give the measured apparent KD of MS2 coat protein of AGCCAAGCAGGAUAUGCCCGGGAUAACAUGAGGAUCACCCAUGUGACCGAUUGAUGUCCUGCAGAAGGGCUUGGGA [Erxesoan] (Eterna round: R96, puzzle: Exclusion 5) .
Key: 16.9 nM

Exercise: Give the measured apparent KD of MS2 coat protein of CUCAUGUUGGAGGAUAUAUUUGUCAACCGACCGAUAGAAGGCCACACAUGAGGAUCACCCAUGUCAUCCGGAGA [Eternabot (Original) Solution 50] (Eterna round: R97, puzzle: Exclusion 6) .
Key: 255 nM

Exercise: Give the measured apparent KD of MS2 coat protein of UAACAUGUCUGAGGAUAUCUGCACGUGUAGUGCAGAGAAGGCAGAACAUGAGGAUCACCCAUGUAGAUCAUUAAUUAAUUAAUU [ENG1/7-B3] (Eterna round: R96, puzzle: Exclusion NG 1) .
Key: 478 nM

Exercise: Give the measured apparent KD of MS2 coat protein of CACUGGACAGGAUAUGUUCUUGAGCACUUGAGGAUCACCCAAGUCAUCAAGAACUCAGGCACAGAAGGGUUUAUGU [salish99_ex5_r4_014] (Eterna round: R97, puzzle: Exclusion 5) .
Key: 15.8 nM

* * *

System: MS2 coat protein
Assay text: apparent KD of MS2 coat protein; designed switch direction (-1 OFF switch, 1 ON switch): -1; higher = weaker reporter binding
Setup conditions: input ligand: none
Returns one of fulfilled or not fulfilled; fulfilled when apparent KD of MS2 coat protein is >= 30 nM.

Exercise: Kindly determine if apparent KD of MS2 coat protein recorded for AUAAUGUGAGGAUAUCAGUCGACUAGCUGCGGCUAGUCGACUGAGAAGGUACAUGAGGAUCACCCAUGUGGUUC [E4/11-B3] (Eterna round: R97, puzzle: Exclusion 4) is above or exactly 30 nM.
Key: fulfilled

Exercise: Kindly determine if apparent KD of MS2 coat protein recorded for CGGCGGGCAGGAUAUGGUAAUAAUUACAUGAGGAUCACCCAUGUAGAUAUAUGGGAAUAACCAGAAGGGCUUGUUG [-20.5, -20.3 kcal, A 32%] (Eterna round: R97, puzzle: Exclusion 5) is above or exactly 30 nM.
Key: not fulfilled

Exercise: Kindly determine if apparent KD of MS2 coat protein recorded for UAAGAGUGAGGAUAUACGUCGCUGGUCCAGAUGGACGCAUGACAUGAGGAUCACCCAUGUAGAAGGCACAAAAC [Enxela Mod 3 - Jieux - Exclusion 2] (Eterna round: R97, puzzle: Exclusion 2) is above or exactly 30 nM.
Key: fulfilled

Exercise: Kindly determine if apparent KD of MS2 coat protein recorded for UUUUUACAUGAGGAUCACCCAUGUCAGGAUAUCCUUAUAUUUUAUUAUUUUAUUUUUUGGAGAAGGGACUAUUA [My solution] (Eterna round: R96, puzzle: Exclusion 1) is above or exactly 30 nM.
Key: fulfilled

Exercise: Kindly determine if apparent KD of MS2 coat protein recorded for AACAGGUCAGGAUAUACAUGAGGAUCACCCAUGUAGACUUCUGGUCUACCUUGACCGUGUAGAAGGGACCUGAA [Exclusion 3 (MOD2 of #98 Marzena11)] (Eterna round: R97, puzzle: Exclusion 3) is above or exactly 30 nM.
Key: not fulfilled

Data provenance: the supplement of paper PMC9170038
